These entries and their values trace back to patent US6323369A.

Target: δ-opiate receptor (Rattus norvegicus, UniProt P33533)
Construct: performed in brain membrane homogenates
Sequence (P33533 whole entry): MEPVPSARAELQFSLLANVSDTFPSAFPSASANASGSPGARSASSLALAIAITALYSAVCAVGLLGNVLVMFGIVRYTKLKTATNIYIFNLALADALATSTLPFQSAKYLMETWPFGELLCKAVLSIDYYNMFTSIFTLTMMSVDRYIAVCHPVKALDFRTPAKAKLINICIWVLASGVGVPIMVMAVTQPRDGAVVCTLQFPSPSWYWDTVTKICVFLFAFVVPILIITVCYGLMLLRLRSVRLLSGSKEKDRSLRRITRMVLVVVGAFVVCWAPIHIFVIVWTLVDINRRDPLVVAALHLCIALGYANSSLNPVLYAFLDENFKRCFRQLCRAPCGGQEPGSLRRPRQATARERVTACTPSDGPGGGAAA
Assay: δ-opiate receptor bonding test ((3H)-2-D-ala-deltorphin II displacement)
Details: rat brain membrane homogenate, 1 nmol/l (3H)-2-D-ala-deltorphin II, 90 min at 37° C., pH 7.4; mean ± standard deviation of 3 independent trials
Protocol: Tests on determining the affinity of compounds of the formula I according to the invention for the δ-opiate receptor were performed in brain membrane homogenates (homogenate from rat brain without the cerebellum, pons and medulla oblongata from male Wistar rats). […] The proportion of non-specific bonding was determined in the presence of 10 mmol/l of naloxon. […] The radioactivity of the glass fibre filter discs was measured in a beta-counter by adding a scintillator. […]
Counter-ions that a name gives are not always drawn.
Could you please report measured Ki for the items listed next?
Respond with the bare value in nM.

// query Item Cc1cccc(C2CCCC(CN(C)C)=C(c3cccc(O)c3)C2)c1 (stereo not drawn) [Example 2f, hydrochloride] has what recorded Ki?
// result 3.2

// query Item CN(C)CC1=C(c2cccc(O)c2)CC(C2CCCCC2)CCC1 (stereo not drawn) [Example 2k, hydrochloride] has what recorded Ki?
// result 10.3

// query Item CN(C)CC1=C(c2cccc(O)c2)CC(c2cccc(O)c2)CCC1.Cl (stereo not drawn) [Example 1, hydrochloride] has what recorded Ki?
// result 1.4

// query Item Cc1cc(C2CCCC(CN(C)C)=C(c3cccc(O)c3)C2)cc(C)c1O (stereo not drawn) [Example 2p, hydrochloride] has what recorded Ki?
// result 2.5

// query Item CN(C)CC1=C(c2cccc(O)c2)CC(Cc2ccccc2)CCC1 (stereo not drawn) [Example 2m, hydrochloride] has what recorded Ki?
// result 10.2

// query Item CN(C)CC1=C(c2cccc(O)c2)CC(CC2CCCCC2)CCC1 (stereo not drawn) [Example 2l, hydrochloride] has what recorded Ki?
// result 28.6

// query Item CN(C)CC1=C(c2cccc(O)c2)CC(c2ccc3ccccc3c2)CCC1.Cl (stereo not drawn) [Example 2d, hydrochloride] has what recorded Ki?
// result 31.5

// query Item CN(C)CC1=C(c2cccc(O)c2)CC(CCc2ccccc2)CCC1 (stereo not drawn) [Example 2o, hydrochloride] has what recorded Ki?
// result 30.6

// query Item CN(C)CC1=C(c2cccc(O)c2)CC(c2cccc(C(C)(C)C)c2)CCC1 (stereo not drawn) [Example 2g, hydrochloride] has what recorded Ki?
// result 17.5

// query Item CN(C)CC1=C(c2cccc(O)c2)CC(c2cccc3ccccc23)CCC1.Cl (stereo not drawn) [Example 2c, hydrochloride] has what recorded Ki?
// result 24.7

// query Item CN(CCc1ccccc1)CC1=C(c2cccc(O)c2)CC(c2ccccc2)CCC1.Cl (stereo not drawn) [Example 3, hydrochloride] has what recorded Ki?
// result 8.3

// query Item CN(C)CC1=C(c2cccc(O)c2)CC(Cc2cccc(O)c2)CCC1 (stereo not drawn) [Example 2n, hydrochloride] has what recorded Ki?
// result 7.4

// query Item CN(C)CC1=C(c2cccc(O)c2)CC(c2ccc(O)cc2)CCC1.Cl (stereo not drawn) [Example 2e, hydrochloride] has what recorded Ki?
// result 15.2

// query Item CN(C)CC1=C(c2cccc(O)c2)CC(c2ccc3cc(O)ccc3c2)CCC1 (stereo not drawn) [Example 2h, hydrochloride] has what recorded Ki?
// result 19.4

// query Item CN(C)CC1=C(c2cccc(O)c2)CC(c2ccc(O)c(F)c2)CCC1.Cl (stereo not drawn) [Example 2i, hydrochloride] has what recorded Ki?
// result 14.6

// query Item CN(C)CC1=C(c2cccc(O)c2)CC(c2ccccc2)CCC1.Cl (stereo not drawn) [Example 2b, hydrochloride] has what recorded Ki?
// result 3.8

// query Item CN(C)CC1=C(c2cccc(O)c2)CC(c2ccccc2O)CCC1 (stereo not drawn) [Example 2j, hydrochloride] has what recorded Ki?
// result 24.7

// query Item CN(C)CC1=C(c2cccc(O)c2)CC(c2ccc(Cl)cc2)CCC1.Cl (stereo not drawn) [Example 2a, hydrochloride] has what recorded Ki?
// result 30.3
